Just for reference, ChEMBL document CHEMBL3244004 is where these values come from.

- System: Mus musculus
- assay_overview: Toxicity in ip dosed C3H/DBA2F1 hybrid mouse allografted with mouse L1210 cells administered for 5 days measured up to 8 days
- Format: organism-based
- run_parameters: in vivo
Exam item: assign MET to entries whose LD10 is below 100 mg/kg and NOT MET to entries at or above 100 mg/kg. Note that a value of exactly 100 mg/kg receives NOT MET.

Example entries begin here.
NS(=O)(=O)c1ccc(Nc2c3ccccc3nc3ccccc23)cc1 = NOT MET
Cl.O=C(O)CCc1ccc(Nc2c3ccccc3nc3ccccc23)cc1 = NOT MET
CCS(=O)(=O)Nc1ccc(Nc2c3ccccc3nc3cc(NC(C)=O)ccc23)cc1 = MET
NC(=O)CCCCCCc1ccc(Nc2c3ccccc3nc3ccccc23)cc1 = NOT MET
CS(=O)(=O)O.NC(=O)CCCCCc1ccc(Nc2c3ccccc3nc3ccccc23)cc1 = NOT MET

State whether 100 mg/kg exceeds LD10 recorded for NS(=O)(=O)CCc1ccc(Nc2c3ccccc3nc3ccccc23)cc1 .
MET

Strictly below 100 mg/kg in LD10? CCCCCS(=O)(=O)Nc1ccc(Nc2c3ccccc3nc3cc(NC(C)=O)ccc23)cc1
MET

Hello, I'm reviewing records and need to know if LD10 of CS(=O)(=O)Nc1ccc(Nc2c3ccccc3nc3ccccc23)cc1 is below 100 mg/kg. Could you check?
MET

Item Cl.O=C(O)CCCCCCCc1ccc(Nc2c3ccccc3nc3ccccc23)cc1 : LD10 beneath 100 mg/kg, strictly?
MET

Report whether reported LD10 is lower than 100 mg/kg (strictly) for CCc1cccc2c(Nc3ccc(CC(=O)O)cc3)c3ccccc3nc12
NOT MET

====

- Tested on: L1210
- assay_overview: Antitumor activity against mouse L1210 cells allografted in C3H/DBA2F1 hybrid mouse assessed as maximum increase of host life span administered as ip for 5 days relative to control
- Type: functional
Give log(ILSmax) for every item shown.
Give bare numbers.

CCc1cccc2c(Nc3ccc(CC(=O)O)cc3)c3ccccc3nc12 = 2.3
Cc1cccc2c(Nc3ccc(CC(=O)O)cc3)c3ccccc3nc12 = 1.9
Cl.O=C(O)CCCCCCCc1ccc(Nc2c3ccccc3nc3ccccc23)cc1 = 1.88
CNc1ccc2c(Nc3ccc(NS(C)(=O)=O)cc3OC)c3ccccc3nc2c1.Cl = 1.97
CS(=O)(=O)O.NC(=O)CCCCCc1ccc(Nc2c3ccccc3nc3ccccc23)cc1 = 1.99

Batch: log(ILSmax) for all items listed.
1. CNc1ccc2c(Nc3ccc(NS(C)(=O)=O)cc3)c3ccccc3nc2c1.Cl
2. CNc1ccc2c(Nc3ccc(CCCC(=O)O)cc3)c3ccccc3nc2c1.Cl
3. CCCCS(=O)(=O)Nc1ccc(Nc2c3ccccc3nc3cc(NC(C)=O)ccc23)cc1

2.01
1.54
1.92

====

- System: L1210
- assay_overview: Antitumor activity against mouse L1210 cells allografted in C3H/DBA2F1 hybrid mouse assessed as maximum increase of host life span administered as ip for 5 days relative to control
- Type: functional
measurement_type: log(ILSmax)

CN(C)C(=O)CCCc1ccc(Nc2c3ccccc3nc3ccccc23)cc1.Cl = <1.3

Here are 3 compounds. What values of log(ILSmax) were reported for them?
1. O=C(O)c1ccc(Nc2c3ccccc3nc3ccccc23)cc1
2. CS(=O)(=O)O.NC(=O)Cc1ccc(Nc2c3ccccc3nc3ccccc23)cc1
3. CC(=O)Nc1ccc2c(=Nc3ccc(CCC(=O)O)cc3)c3ccccc3[nH]c2c1.Cl

1: 2.11; 2: 1.81; 3: <1.3

Please give log(ILSmax), item by item, for the list that follows.
1. CCCCCCS(=O)(=O)Nc1ccc(Nc2c3ccccc3nc3cc(NC(C)=O)ccc23)cc1
2. Cl.O=C(O)CCCCCCCCCc1ccc(Nc2c3ccccc3nc3ccccc23)cc1

1: 1.63; 2: 1.88

====

- assay_overview: Logarithmic function of the retardation factor value of compound by reverse phase chromatography analysis
- Assay type: physicochemical
Response field label takes T when Rm is strictly below 0.5 and F in all other cases.

Strictly below 0.5: is that where Rm of CCc1cccc2c(Nc3ccc(CC(=O)O)cc3)c3ccccc3nc12 sits?
F

hey, is Rm for CCc1cccc2c(Nc3ccc(CCC(=O)O)cc3)c3ccccc3nc12.Cl lower than 0.5 or not?
F

In the record for CNc1ccc2c(Nc3ccc(NS(C)(=O)=O)cc3OC)c3ccccc3nc2c1.Cl , is Rm less than 0.5?
T

Record CC(=O)Nc1ccc2c(=Nc3ccc(CCC(=O)O)cc3)c3ccccc3[nH]c2c1.Cl : is its Rm strictly below 0.5?
T

Rm strictly < 0.5 for this compound? O=C(O)Cc1ccc(Nc2c3ccccc3nc3ccccc23)cc1
T

Rm under 0.5? Item: CNc1ccc2c(Nc3ccc(CCCC(=O)O)cc3)c3ccccc3nc2c1.Cl
F

====

- System: Mus musculus
- assay_overview: Toxicity in ip dosed C3H/DBA2F1 hybrid mouse allografted with mouse L1210 cells administered for 5 days measured up to 8 days
- Type: organism-based
- run_parameters: in vivo
Binary classification by LD10, with 300 mg/kg as an inclusive lower bound for rule met; all other cases are rule not met.

Study these solved cases before continuing.
CNc1ccc2c(Nc3ccc(CCCC(=O)O)cc3)c3ccccc3nc2c1.Cl = rule met
CCS(=O)(=O)Nc1ccc(Nc2c3ccccc3nc3ccccc23)cc1 = rule met
CCC(=O)Nc1ccc2c(Nc3ccc(NS(C)(=O)=O)cc3)c3ccccc3nc2c1 = rule not met
CNc1ccc2c(Nc3ccc(NS(C)(=O)=O)cc3OC)c3ccccc3nc2c1.Cl = rule not met

Then this compound:
Determine whether this compound has LD10 no lower than 300 mg/kg: CCCCCS(=O)(=O)Nc1ccc(Nc2c3ccccc3nc3ccccc23)cc1.Cl
rule not met

====

- Tested on: Mus musculus
- assay_overview: Toxicity in ip dosed C3H/DBA2F1 hybrid mouse allografted with mouse L1210 cells administered for 5 days measured up to 8 days
- Format: organism-based
- run_parameters: in vivo
Use Criterion met when the recorded LD10 is no lower than 80 mg/kg; use Criterion not met when it is lower.

Please review the following examples before continuing.
Cl.NS(=O)(=O)Cc1ccc(Nc2c3ccccc3nc3ccccc23)cc1 = Criterion not met
CNc1ccc2c(Nc3ccc(NS(C)(=O)=O)cc3)c3ccccc3nc2c1.Cl = Criterion not met
Cl.O=C(O)CCCCCCCCCc1ccc(Nc2c3ccccc3nc3ccccc23)cc1 = Criterion not met
O=C(O)c1ccc(Nc2c3ccccc3nc3ccccc23)cc1 = Criterion not met
CC(=O)Nc1ccc2c(Nc3ccc(NS(C)(=O)=O)cc3)c3ccccc3nc2c1 = Criterion not met
CS(=O)(=O)O.NC(=O)CCCCCCCc1ccc(Nc2c3ccccc3nc3ccccc23)cc1 = Criterion met

Entry NC(=O)CCCc1ccc(Nc2c3ccccc3nc3ccccc23)cc1 : is its LD10 no less than 80 mg/kg?
Criterion met

Please tell me: is the compound CCCS(=O)(=O)Nc1ccc(Nc2c3ccccc3nc3cc(NC(C)=O)ccc23)cc1 at or over 80 mg/kg in terms of LD10?
Criterion not met

Textbook exercise: given the entry CCCCS(=O)(=O)Nc1ccc(Nc2c3ccccc3nc3ccccc23)cc1 , state whether its LD10 is greater than or equal to 80 mg/kg.
Criterion met

Could you please find out whether Cl.O=C(O)CCCc1ccc(Nc2c3ccccc3nc3ccccc23)cc1 has LD10 that meets 80 mg/kg or exceeds it?
Criterion met

====

- assay_overview: Logarithmic function of the retardation factor value of compound by reverse phase chromatography analysis
- Assay type: physicochemical
// -1 strictly below 0.7 in Rm; 1 otherwise

CCCCS(=O)(=O)Nc1ccc(Nc2c3ccccc3nc3ccccc23)cc1 = -1

Is the recorded value of Rm equal to or greater than 0.7 for this compound? Cl.O=C(O)CCCCCc1ccc(Nc2c3ccccc3nc3ccccc23)cc1
1

// inclusive: Rm at least 0.7? input: Cc1cccc2c(Nc3ccc(CCC(=O)O)cc3)c3ccccc3nc12
-1

Could you please find out whether NS(=O)(=O)c1ccc(Nc2c3ccccc3nc3ccccc23)cc1 has Rm that meets 0.7 or exceeds it?
-1

Check if Rm >= 0.7 (inclusive). Item: CCCCCCS(=O)(=O)Nc1ccc(Nc2c3ccccc3nc3ccccc23)cc1.Cl
1

Given CCS(=O)(=O)Nc1ccc(Nc2c3ccccc3nc3cc(NC(C)=O)ccc23)cc1 , state whether its Rm is at least 0.7.
-1

Tell me whether Rm is at least 0.7 here: Cl.O=C(O)CCCCCCCCc1ccc(Nc2c3ccccc3nc3ccccc23)cc1
1

Reported Rm reaches at least 0.7 for CCCS(=O)(=O)Nc1ccc(Nc2c3ccccc3nc3ccccc23)cc1 ?
-1

====

- assay_overview: Logarithmic function of the retardation factor value of compound by reverse phase chromatography analysis
- Assay type: physicochemical
measurement_type: Rm

// for each compound below, give its Rm
1. Cl.NS(=O)(=O)Cc1ccc(Nc2c3ccccc3nc3ccccc23)cc1
2. Cl.O=C(O)CCc1ccc(Nc2c3ccccc3nc3ccccc23)cc1
3. NC(=O)CCCc1ccc(Nc2c3ccccc3nc3ccccc23)cc1
4. NS(=O)(=O)CCc1ccc(Nc2c3ccccc3nc3ccccc23)cc1
5. CCCCCS(=O)(=O)Nc1ccc(Nc2c3ccccc3nc3cc(NC(C)=O)ccc23)cc1
6. O=C(O)c1ccc(Nc2c3ccccc3nc3ccccc23)cc1
7. CS(=O)(=O)O.NC(=O)CCCCCc1ccc(Nc2c3ccccc3nc3ccccc23)cc1

[-0.36, 0.44, 0.09, -0.2, 0.59, 0.27, 0.41]
